# AC50 values compiled below
biological target: Muscarinic acetylcholine receptor M1 (Homo sapiens, UniProt P11229); type: functional, cell-based; note: assay procedure not described here
Sequence (P11229 whole entry): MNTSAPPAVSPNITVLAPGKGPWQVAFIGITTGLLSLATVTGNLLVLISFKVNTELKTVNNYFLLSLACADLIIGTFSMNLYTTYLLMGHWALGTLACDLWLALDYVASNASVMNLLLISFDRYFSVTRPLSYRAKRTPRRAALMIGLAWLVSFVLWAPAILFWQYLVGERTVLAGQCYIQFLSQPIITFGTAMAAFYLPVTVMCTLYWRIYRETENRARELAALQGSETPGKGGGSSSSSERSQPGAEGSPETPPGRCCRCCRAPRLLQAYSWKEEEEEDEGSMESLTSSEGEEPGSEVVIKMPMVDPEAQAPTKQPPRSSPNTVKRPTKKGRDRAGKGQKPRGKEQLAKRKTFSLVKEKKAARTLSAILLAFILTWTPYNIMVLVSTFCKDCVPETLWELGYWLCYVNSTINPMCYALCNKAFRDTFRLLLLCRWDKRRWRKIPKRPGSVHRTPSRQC

Examples with their reported AC50 follow.
compound | measuredAttribute | readoutValue
OC[C@H]1O[C@@H](c2ccc(Cl)c(Cc3ccc(O[C@H]4CCOC4)cc3)c2)[C@H](O)[C@@H](O)[C@@H]1O [EMPAGLIFLOZIN] | AC50 | > 30 µM
CC(N)Cc1ccc(O)cc1 (configuration not stated) [HYDROXYAMPHETAMINE] | AC50 | > 30 µM
NCC(CC(=O)O)c1ccccc1 (configuration not stated) [PHENIBUT] | AC50 | > 30 µM
c1ccc2c(c1)CCc1ccccc1N2C1CN2CCC1CC2 (configuration not stated) [QUINUPRAMINE] | AC50 | > 30 µM
O=C(O)c1cc(/N=N/c2ccc(O)c(C(=O)O)c2)ccc1O [OLSALAZINE] | AC50 | > 30 µM
CC(=O)Oc1cc(C(F)(F)F)ccc1C(=O)O [TRIFLUSAL] | AC50 | > 30 µM

input: I would be grateful if you could share the reported AC50 for COc1cc2nccc(Oc3ccc(NC(=O)C4(C(=O)Nc5ccc(F)cc5)CC4)cc3)c2cc1OC [CABOZANTINIB] .
output: > 30 µM

input: I would be grateful if you could share the reported AC50 for Cc1cc(N)c2ccccc2[n+]1CCCCCCCCCC[n+]1c(C)cc(N)c2ccccc21 .
output: > 30 µM

input: I would be grateful if you could share the reported AC50 for CC(C)OC(=O)CCC/C=C\C[C@@H]1[C@@H](/C=C/C(F)(F)COc2ccccc2)[C@H](O)C[C@@H]1O [TAFLUPROST] .
output: > 30 µM

input: I would be grateful if you could share the reported AC50 for CC[C@H](C)C[C@H](C)CCCCCCCCC(=O)N[C@H]1C[C@@H](O)[C@@H](NCCN)NC(=O)[C@@H]2[C@@H](O)CCN2C(=O)[C@H]([C@H](O)CCN)NC(=O)[C@H]([C@H](O)[C@@H](O)c2ccc(O)cc2)NC(=O)[C@@H]2C[C@@H](O)CN2C(=O)[C@H]([C@@H](C)O)NC1=O [CASPOFUNGIN] .
output: > 30 µM

input: I would be grateful if you could share the reported AC50 for CC(C)C[C@H](NC(=O)CNC(=O)c1cc(Cl)ccc1Cl)B(O)O [IXAZOMIB] .
output: > 30 µM

input: I would be grateful if you could share the reported AC50 for C[C@@H]1C[C@H]2[C@@H]3CCC4=CC(=O)C=C[C@]4(C)[C@@]3(Cl)[C@@H](O)C[C@]2(C)[C@@]1(OC(=O)c1ccco1)C(=O)CCl [MOMETASONE FUROATE] .
output: > 30 µM

input: I would be grateful if you could share the reported AC50 for COc1cc(N2CCC(N3CCN(C)CC3)CC2)ccc1Nc1ncc(Cl)c(Nc2ccccc2P(C)(C)=O)n1 [BRIGATINIB] .
output: > 30 µM

input: I would be grateful if you could share the reported AC50 for O=C1/C(=C2\Nc3ccc(S(=O)(=O)O)cc3C2=O)Nc2ccc(S(=O)(=O)O)cc21 [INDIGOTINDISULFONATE] .
output: > 30 µM

input: I would be grateful if you could share the reported AC50 for CC(C)(O)CNc1nc(Nc2ccnc(C(F)(F)F)c2)nc(-c2cccc(C(F)(F)F)n2)n1 [ENASIDENIB] .
output: > 30 µM

input: I would be grateful if you could share the reported AC50 for CN1CCC(=C2c3ccccc3Sc3ccccc32)CC1 [PIMETHIXENE] .
output: > 30 µM

input: I would be grateful if you could share the reported AC50 for CN1CCN(C2=Nc3ccccc3Oc3ccc(Cl)cc32)CC1 [LOXAPINE] .
output: > 30 µM

###

# AC50 values compiled below
Biological target: Estrogen receptor (Homo sapiens); note: assay procedure not described here
Sequence (P03372 whole entry): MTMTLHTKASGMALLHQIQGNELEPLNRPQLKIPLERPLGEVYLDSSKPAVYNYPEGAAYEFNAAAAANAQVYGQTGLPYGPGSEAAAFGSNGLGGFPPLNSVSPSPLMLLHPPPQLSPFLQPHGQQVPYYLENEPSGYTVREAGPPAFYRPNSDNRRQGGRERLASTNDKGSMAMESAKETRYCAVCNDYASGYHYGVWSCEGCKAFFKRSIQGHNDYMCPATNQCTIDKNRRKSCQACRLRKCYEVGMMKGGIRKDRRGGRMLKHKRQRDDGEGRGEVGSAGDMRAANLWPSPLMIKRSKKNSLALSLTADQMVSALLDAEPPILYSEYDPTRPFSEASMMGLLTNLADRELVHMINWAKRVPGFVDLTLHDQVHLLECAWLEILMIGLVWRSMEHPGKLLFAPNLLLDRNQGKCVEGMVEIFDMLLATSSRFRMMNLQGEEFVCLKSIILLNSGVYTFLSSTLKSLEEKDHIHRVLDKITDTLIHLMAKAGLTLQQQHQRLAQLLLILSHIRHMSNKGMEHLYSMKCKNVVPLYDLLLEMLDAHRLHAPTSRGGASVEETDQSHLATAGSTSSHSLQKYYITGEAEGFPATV

Examples with their reported AC50 follow.
compound | systemTested | AC50
COc1cc2nc(N3CCN(C(=O)C4CCCO4)CC3)nc(N)c2cc1OC (centres undefined) | Estrogen receptor (Homo sapiens) | > 30 µM
CN1CCCCC1CCN1c2ccccc2Sc2ccc([S+](C)[O-])cc21 (centres undefined) | Estrogen receptor (Homo sapiens) | > 10 µM
CN1CCC(=C2c3ccccc3Sc3ccccc32)CC1 | Estrogen receptor (Homo sapiens) | > 30 µM
COC(=O)c1ccc(O)cc1 | Estrogen receptor (Homo sapiens) | > 30 µM
CC1=CCC(C(C)(C)O)CC1O (centres undefined) | Estrogen receptor (Homo sapiens) | > 30 µM

input: I would be grateful if you could share the reported AC50 for O=C(O)COc1ccc(C(=O)c2cccs2)c(Cl)c1Cl .
output: > 30 µM

input: I would be grateful if you could share the reported AC50 for CC[C@H](C)C[C@H](C)CCCCCCCCC(=O)N[C@H]1C[C@@H](O)[C@@H](NCCN)NC(=O)[C@@H]2[C@@H](O)CCN2C(=O)[C@H]([C@H](O)CCN)NC(=O)[C@H]([C@H](O)[C@@H](O)c2ccc(O)cc2)NC(=O)[C@@H]2C[C@@H](O)CN2C(=O)[C@H]([C@@H](C)O)NC1=O .
output: 23.1 µM

input: I would be grateful if you could share the reported AC50 for CCCN(CCC)C(=O)Cc1c(-c2ccc(Cl)cc2)nc2ccc(Cl)cn12 .
output: > 30 µM

input: I would be grateful if you could share the reported AC50 for CC(C)(O)CNc1nc(Nc2ccnc(C(F)(F)F)c2)nc(-c2cccc(C(F)(F)F)n2)n1 .
output: > 30 µM

###

These compounds were tested on D(1A) dopamine receptor (Homo sapiens); AC50 is the recorded read-out. Note: assay procedure not described here.
Sequence (P21728 whole entry): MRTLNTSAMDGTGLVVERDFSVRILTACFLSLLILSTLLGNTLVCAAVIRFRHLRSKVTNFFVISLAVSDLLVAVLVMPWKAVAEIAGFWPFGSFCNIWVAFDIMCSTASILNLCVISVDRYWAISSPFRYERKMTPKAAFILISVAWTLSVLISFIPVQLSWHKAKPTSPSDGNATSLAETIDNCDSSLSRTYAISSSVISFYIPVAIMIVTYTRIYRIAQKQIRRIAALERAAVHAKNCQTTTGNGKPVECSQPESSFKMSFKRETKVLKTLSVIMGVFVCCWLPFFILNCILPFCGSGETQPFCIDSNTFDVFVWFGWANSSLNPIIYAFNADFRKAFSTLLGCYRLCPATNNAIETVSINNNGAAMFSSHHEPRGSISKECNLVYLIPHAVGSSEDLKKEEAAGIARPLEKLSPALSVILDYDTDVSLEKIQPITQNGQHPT

compound | AC50
N[C@@H](CS)C(=O)O [CYSTEINE] | > 30 µM

input: Record lookup: for D(1A) dopamine receptor (Homo sapiens), what AC50 belongs to FC(F)(F)c1ccc(CNc2ccc(Cc3c[nH]c4ncc(Cl)cc34)cn2)cn1 [PEXIDARTINIB] ?
output: 20.2 µM

input: Record lookup: for D(1A) dopamine receptor (Homo sapiens), what AC50 belongs to C/C=C/C/C=C/CCC(=O)[C@H]1O[C@H]1C(N)=O [CERULENIN] ?
output: > 30 µM

input: Record lookup: for D(1A) dopamine receptor (Homo sapiens), what AC50 belongs to CCN(CC)C(=S)S [DITIOCARB] ?
output: > 30 µM

input: Record lookup: for D(1A) dopamine receptor (Homo sapiens), what AC50 belongs to CN(CC1(C)CCCO1)S(=O)(=O)c1ccc(Cl)c(S(N)(=O)=O)c1 (centres undefined) [MEFRUSIDE] ?
output: > 30 µM

input: Record lookup: for D(1A) dopamine receptor (Homo sapiens), what AC50 belongs to OC[C@@H](O)[C@@H](O)[C@H](O)[C@@H](O)CO [SORBITOL] ?
output: > 30 µM

input: Record lookup: for D(1A) dopamine receptor (Homo sapiens), what AC50 belongs to c1ccc2c(c1)CCc1ccccc1N2C1CN2CCC1CC2 (centres undefined) [QUINUPRAMINE] ?
output: 2.41 µM

input: Record lookup: for D(1A) dopamine receptor (Homo sapiens), what AC50 belongs to O=C(O)CCCCC1CCSS1 (stereo not drawn) [LIPOIC ACID, ALPHA] ?
output: > 30 µM

input: Record lookup: for D(1A) dopamine receptor (Homo sapiens), what AC50 belongs to CC(C)C[C@H](NC(=O)CNC(=O)c1cc(Cl)ccc1Cl)B(O)O [IXAZOMIB] ?
output: > 30 µM

input: Record lookup: for D(1A) dopamine receptor (Homo sapiens), what AC50 belongs to O=C(O)c1cc(/N=N/c2ccc(O)c(C(=O)O)c2)ccc1O [OLSALAZINE] ?
output: > 30 µM
